Test system: SMN2 mRNA
Experiment: RT-qPCR splicing assay, SMN2 canonical junction (CJ) mRNA
Assay type: cell-based, human
Settings: Homo sapiens; Table 5 panel; canonical junction qPCR; compound concentration having 50% response in CJ decrease; read-out: SMN2 IC50 (decrease in CJ mRNA levels)
QUANTITY: IC50

// known answers, use as guide
// field: IC50; key: Cc1cc(-c2ccc3c(=O)n(C4CC(C)(C)NC(C)(C)C4)cnc3c2)cc2cn(C)nc12 [Compound 157] ; value = 1000 to 10000 nM

// field: IC50; key: Cc1cc(-c2cc(F)c3c(=O)n(C4CCNC5(CC5)C4)ccc3c2)nc2cn(C)nc12 (centres unmarked) [Compound 431] ; value = < 100 nM

// field: IC50; key: Cc1cn2nc(-c3ccc4c(=O)n(C5CCNCC5)ccc4c3)cc(OCc3ccccc3)c2n1 [Compound 526] ; value = < 100 nM

// field: IC50; key: Cc1nc2c(F)cc(-c3ccc4c(=O)n(C5CCNCC5)ncc4c3)cc2s1 [Compound 253] ; value = 100 to 1000 nM

// field: IC50; key: Cc1cc(-c2ccc3c(=O)n(C4CCNC5(CC5)C4)ncc3c2)cc2cn(C)nc12 (centres unmarked) [Compound 512] ; value = 100 to 1000 nM

// field: IC50; key: Cn1cc2cc(-c3cc(F)c4c(=O)n(C5CCNC6(CC6)C5)ccc4c3)c(O)c(F)c2n1 (centres unmarked) [Compound 420] ; value = < 100 nM

// field: IC50; key: Cc1cc(-c2nc3ccc(N(C)C4CCNCC4)cc3c(=O)[nH]2)cc2cn(C)nc12 [Compound 121] ; value = 100 to 1000 nM

Others:
// field: IC50; key: Cc1cn2cc(-c3cc(O)c4c(=O)n(C5CCNCC5)cnc4c3)cc(F)c2n1 [Compound 587] ; value = < 100 nM
